TESTED ON: RHOC; further: test concentration or dose not given here
MEASUREMENT PARAMETERS: ASO
These antisense oligonucleotides have a phosphorothioate backbone; sugars and methylation of C are not fully specified.
Please provide measured remaining target (mRNA or protein) (fraction of control) for the entries that follow.
The response must contain the number and no unit.

Recorded remaining target (mRNA or protein) (fraction of control) for TTCCTCAGACCGAACGGG , please?
0.43

Please report the recorded remaining target (mRNA or protein) (fraction of control) for GGAGGGAACTGAAAATGG .
0.87

I am curious: what remaining target (mRNA or protein) (fraction of control) value has been reported for AGGTCTTCCCACAGGCAC ?
0.6

Entry under review: TCGTCTTGCCTCAGGTCC . Reported remaining target (mRNA or protein) (fraction of control)?
0.21

Item CTCCCGCACTCCCTCCTT has what recorded remaining target (mRNA or protein) (fraction of control)?
0.09

What value of remaining target (mRNA or protein) (fraction of control) has been recorded for this entry: ACTCAAGGTAGCCAAAGG
0.67

Given the entry AGTTCTCAAAGACAGTAG , report its measured remaining target (mRNA or protein) (fraction of control).
0.62

Quick check: remaining target (mRNA or protein) (fraction of control) of CAGACCGAACGGGCTCCT ?
0.35

// remaining target (mRNA or protein) (fraction of control) lookup, key: TTGCTGAAGACGATGAGG
0.77

Tell me the measured remaining target (mRNA or protein) (fraction of control) of CCGGCTGAAGTTCCCAGG , please.
0.58

Quick one: remaining target (mRNA or protein) (fraction of control) of GTGTGCTCGTCTTGCCTC ?
0.33

Suppose we examine the sequence GAGCTGAGATGAAGTCAA ; what remaining target (mRNA or protein) (fraction of control) value has been reported?
0.71

Query: remaining target (mRNA or protein) (fraction of control); subject: TGTTTTCCAGGCTGTCAG
0.41

What value of measured remaining target (mRNA or protein) (fraction of control) is listed for CCTGTGAGCCAGAAGTGT ?
0.31

Would you mind telling me what remaining target (mRNA or protein) (fraction of control) value was observed for TTCCTGTGAGCCAGAAGT ?
0.31

Form field: reported remaining target (mRNA or protein) (fraction of control) of CTCAAACACCTCCCGCAC
0.66
